# EXPERIMENTAL PROTOCOL: chemical genetic growth profiling, strain panel (AID 1159580);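 also: tested at 20 µM; growth read once vehicle control cultures reached saturation at 30 °C; 1 = growth at the plate median or of vehicle wells; lower values mean less growth of the strain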
# MEASUREMENT SETUP: S. cerevisiae deletion strains, growth OD, locus YBR231C, strain swc5, hits give low values
In all, about 5,500 compounds went through this assay and about 2,000 (36%) were called active. Another 18% or so got no clear call; they are omitted. Some of the results follow.
I'd appreciate it if you marked entries Y when normalized growth is lower than 1 and N when it is not.

{"SMILES": "O=c1oc2cc(O)ccc2s1", "CLASS ASSIGNMENT": "Y"}
{"SMILES": "COC(=O)Nc1nc2ccc(Sc3ccccc3)cc2[nH]1", "CLASS ASSIGNMENT": "Y"}
{"SMILES": "NNC(=O)c1ccncc1", "CLASS ASSIGNMENT": "N"}
{"SMILES": "Nc1c2ccccc2nc2ccccc12", "CLASS ASSIGNMENT": "Y"}
{"SMILES": "O=c1[nH]cc(F)c(=O)[nH]1", "CLASS ASSIGNMENT": "Y"}

====

# EXPERIMENTAL PROTOCOL: chemical genetic growth profiling, strain panel (AID 1159580);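 also: tested at 20 µM; growth read once vehicle control cultures reached saturation at 30 °C; 1 = growth at the plate median or of vehicle wells; lower values mean less growth of the strain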
# MEASUREMENT SETUP: S. cerevisiae deletion strains, growth OD, locus YEL003W, strain gim4, hits give low values
Among all 5,500 compounds or so, about 2,000 (36%) were called active. Roughly 18% stayed inconclusive and do not appear here. This is one part of the list.
normalized growth values by entry
MEASURED ENDPOINT: normalized growth

{"COMPOUND": "O=C(Nc1ccc(C(=O)O)c(O)c1)c1ccccc1", "MEASURED ENDPOINT": "normalized growth", "TEST VALUE": "0.974 (inactive)"}
{"COMPOUND": "C[C@@H]1C(=O)O[C@H]2[C@H]1CC[C@@]1(C)C=CC(=O)[C@@]3(C)O[C@@]213", "MEASURED ENDPOINT": "normalized growth", "TEST VALUE": "1.01 (inactive)"}
{"COMPOUND": "CC1(C)CC[C@]2(C(=O)O)CC[C@]3(C)C(=CCC4[C@@]5(C)CC[C@@H](O)C(C)(C)C5CC[C@]43C)C2C1 (stereo partly drawn)", "MEASURED ENDPOINT": "normalized growth", "TEST VALUE": "1.02 (inactive)"}
{"COMPOUND": "Cc1cc(O)cc(O)c1C(=O)O", "MEASURED ENDPOINT": "normalized growth", "TEST VALUE": "1.01 (inactive)"}
{"COMPOUND": "CC1=NS(=O)(=O)c2cc(Cl)ccc2N1", "MEASURED ENDPOINT": "normalized growth", "TEST VALUE": "0.984 (inactive)"}
{"COMPOUND": "FC(F)(F)c1ccccc1-n1ccnc1", "MEASURED ENDPOINT": "normalized growth", "TEST VALUE": "0.987 (inactive)"}
{"COMPOUND": "COc1c(-c2coc3cc4c(cc3c2=O)CC(O)C(C)(C)O4)ccc2c1C=CC(C)(C)O2 (stereo not drawn)", "MEASURED ENDPOINT": "normalized growth", "TEST VALUE": "0.99 (inactive)"}
{"COMPOUND": "CC(=O)NCc1c(I)c(NC(C)=O)c(I)c(C(=O)O)c1I", "MEASURED ENDPOINT": "normalized growth", "TEST VALUE": "1.01 (inactive)"}
